Data origin, for the record: patent US9085607B2

test: Solubility in screen solvents derived from loading in solvent and dissolution; type: physicochemical; conditions: Dimethyl Carbonate, organic solvent or mixture, thermodynamic from solid
TEST_READOUT: solubility

// fetch solubility given entry COc1ccc2c(O[C@@H]3C[C@H]4C(=O)N[C@]5(C(=O)NS(=O)(=O)C6CC6)C[C@H]5/C=C\CCCCC[C@H](CC(=O)N5CCCC(F)(F)C5)C(=O)N4C3)cc(-c3nc(C(C)C)cs3)nc2c1C < 50 mg/mL

----------
assay: Solubility in screen solvents derived from loading in solvent and dissolution; type: physicochemical; conditions: 2-Methoxyethyl ether, organic solvent or mixture, thermodynamic from solid
TEST_READOUT: solubility

// fetch solubility given entry COc1ccc2c(O[C@@H]3C[C@H]4C(=O)N[C@]5(C(=O)NS(=O)(=O)C6CC6)C[C@H]5/C=C\CCCCC[C@H](CC(=O)N5CCCC(F)(F)C5)C(=O)N4C3)cc(-c3nc(C(C)C)cs3)nc2c1C < 90 mg/mL

----------
assay: Solubility in screen solvents derived from loading in solvent and dissolution; format: physicochemical; conditions: 2-propanol with 20 vol % water, organic solvent or mixture, thermodynamic from solid; 2-propanol: 20 vol % Water
TEST_READOUT: solubility

// fetch solubility given entry COc1ccc2c(O[C@@H]3C[C@H]4C(=O)N[C@]5(C(=O)NS(=O)(=O)C6CC6)C[C@H]5/C=C\CCCCC[C@H](CC(=O)N5CCCC(F)(F)C5)C(=O)N4C3)cc(-c3nc(C(C)C)cs3)nc2c1C < 95 mg/mL

----------
test: Solubility in screen solvents derived from loading in solvent and dissolution; assay type: physicochemical; details: Methanol: 5 vol % Water, organic solvent or mixture, thermodynamic from solid
TEST_READOUT: solubility

// fetch solubility given entry COc1ccc2c(O[C@@H]3C[C@H]4C(=O)N[C@]5(C(=O)NS(=O)(=O)C6CC6)C[C@H]5/C=C\CCCCC[C@H](CC(=O)N5CCCC(F)(F)C5)C(=O)N4C3)cc(-c3nc(C(C)C)cs3)nc2c1C > 177 mg/mL

----------
experiment: Solubility in screen solvents derived from loading in solvent and dissolution; format: physicochemical; settings: 2-Butanone, organic solvent or mixture, thermodynamic from solid
TEST_READOUT: solubility

// fetch solubility given entry COc1ccc2c(O[C@@H]3C[C@H]4C(=O)N[C@]5(C(=O)NS(=O)(=O)C6CC6)C[C@H]5/C=C\CCCCC[C@H](CC(=O)N5CCCC(F)(F)C5)C(=O)N4C3)cc(-c3nc(C(C)C)cs3)nc2c1C [ACH-0142684] < 50 mg/mL

----------
experiment: Solubility in screen solvents derived from loading in solvent and dissolution; type: physicochemical; settings: Cyclohexane, organic solvent or mixture, thermodynamic from solid
TEST_READOUT: solubility

// fetch solubility given entry COc1ccc2c(O[C@@H]3C[C@H]4C(=O)N[C@]5(C(=O)NS(=O)(=O)C6CC6)C[C@H]5/C=C\CCCCC[C@H](CC(=O)N5CCCC(F)(F)C5)C(=O)N4C3)cc(-c3nc(C(C)C)cs3)nc2c1C [ACH-0142684] < 50 mg/mL

----------
assay: Solubility in screen solvents derived from loading in solvent and dissolution; type: physicochemical; conditions: Acetone: 10 vol % Water, organic solvent or mixture, thermodynamic from solid
TEST_READOUT: solubility

// fetch solubility given entry COc1ccc2c(O[C@@H]3C[C@H]4C(=O)N[C@]5(C(=O)NS(=O)(=O)C6CC6)C[C@H]5/C=C\CCCCC[C@H](CC(=O)N5CCCC(F)(F)C5)C(=O)N4C3)cc(-c3nc(C(C)C)cs3)nc2c1C < 99 mg/mL
